Molecule: CC(=O)NC[C@H]1CN(c2ccc3c(c2)C[C@@H](C)N3C(C)=O)C(=O)O1
melting point: 184 to 185 °C
//
Molecule: CC(=S)NC[C@H]1CN(c2ccc3c(c2)CC(C(C)(C)C)N3C=O)C(=O)O1 (stereo partly drawn)
melting point: 219 to 221 °C
//
Molecule: CC(=S)NC[C@H]1CN(c2ccc3c(c2)OC[C@@H](C)N3C=O)C(=O)O1
melting point: 95 to 98 °C
//
Molecule: CC(=O)NC[C@H]1CN(c2ccc3c(c2)CC(C)N3CCF)C(=O)O1 (stereo partly drawn)
melting point: 127 to 130 °C
//
Molecule: COCC(=O)N1c2ccc(N3C[C@H](CNC(C)=O)OC3=O)cc2C[C@H]1C
melting point: 174 to 175 °C
//
Molecule: CC(=O)NC[C@H]1CN(c2ccc3c(c2)OC[C@@H](C)N3C=O)C(=O)O1
melting point: 148 to 151 °C
//
Molecule: CC(=O)NC[C@H]1CN(c2ccc3c(c2)CC(CF)N3C=O)C(=O)O1 (stereo partly drawn)
melting point: 132 to 136 °C
//
Molecule: CC(=O)NC[C@H]1CN(c2ccc3c(c2)CC(C)N3C(=O)CO)C(=O)O1 (stereo partly drawn)
melting point: 130 to 133 °C
//
Molecule: CC(=O)NC[C@H]1CN(c2ccc3c(c2)CCC(C)N3C=O)C(=O)O1 (stereo partly drawn)
melting point: 85 to 87 °C
//
Molecule: CC(=O)NC[C@H]1CN(c2ccc3c(c2)CC[C@@H](C)N3C=O)C(=O)O1
melting point: 89 to 91 °C
//
Molecule: CC(=O)NC[C@H]1CN(c2ccc3c(c2)C[C@@H](C)N3C(=O)COC(C)=O)C(=O)O1
melting point: 186 to 187 °C
//
Molecule: CC(=S)NC[C@H]1CN(c2ccc3c(c2)CC[C@@H](C)N3C=O)C(=O)O1
melting point: 184 to 186 °C
//
Molecule: CC(=O)NC[C@H]1CN(c2ccc3c(c2)OCC(C)N3C=O)C(=O)O1 (stereo partly drawn)
melting point: 118 to 121 °C (dec.)
//
Molecule: CCC(=O)NC[C@H]1CN(c2ccc3c(c2)C[C@@H](C)N3C=O)C(=O)O1
melting point: 118 to 119 °C
//
Molecule: CC(=S)NC[C@H]1CN(c2ccc3c(c2)C[C@@H](C)N3C(=O)CO)C(=O)O1
melting point: 115 to 117 °C
//
Molecule: CNC(=S)N1c2ccc(N3C[C@H](CNC(C)=O)OC3=O)cc2C[C@H]1C
melting point: 109 to 111 °C
//
Molecule: CC(=S)NC[C@H]1CN(c2ccc3c(c2)C[C@@H](C)N3C=O)C(=O)O1
melting point: 95 to 96 °C
//
Molecule: CC(=O)NC[C@H]1CN(c2ccc3c(c2)C[C@@H](C)N3C=O)C(=O)O1
melting point: 158 to 159 °C
